// data source = patent US12509451B2

tested on: CD38 NAD+ hydrolase activity in NH7-dCas9 cells (Jurkat clone) (Homo sapiens)
Construct: The assay utilized CD38 expressing NH7-dCas9 cells (Jurkat clone); host or cells: NH7-dCas9 cells (Jurkat clone)
Sequence (P28907 1-300): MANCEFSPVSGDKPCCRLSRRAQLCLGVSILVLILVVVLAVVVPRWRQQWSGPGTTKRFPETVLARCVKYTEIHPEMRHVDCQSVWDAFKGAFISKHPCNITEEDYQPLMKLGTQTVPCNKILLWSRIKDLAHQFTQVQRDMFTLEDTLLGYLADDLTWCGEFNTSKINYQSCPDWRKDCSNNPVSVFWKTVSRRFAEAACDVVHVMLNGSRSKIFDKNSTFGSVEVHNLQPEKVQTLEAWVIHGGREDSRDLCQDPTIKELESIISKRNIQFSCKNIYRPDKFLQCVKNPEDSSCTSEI
method description: Fluorescence-based NAD+ hydrolase activity assay with human T cell line NH7-dCas9 cells-Jurkat clone (Assay 1)
measurement conditions: read-out: Assay 1 Arithmetic mean IC50
Parameter IC50: see the listing below.

Find the recorded IC50 belonging to Cc1cc(C(=O)Nc2cccnc2)nc(-n2ccnc2)c1 and report it.
< 1 nM

Find the recorded IC50 belonging to O=C(Nc1ccncn1)c1cccc(-n2ccnc2)n1 and report it.
1 to 50 nM

Let us move to another entry and its IC50.
Find the recorded IC50 belonging to O=C(Nc1ccc(C(F)(F)F)nc1)c1cccc(-n2ccnc2)n1 and report it.
1 to 50 nM
